target: MCL1 protein (Homo sapiens); construct: this assay uses full length endogenous MCL1 protein at mitochondria outer membrane; endogenous in cells; host or cells: RKO colon cancer cell line; assay: PIxEL: protein-protein interaction in permeabilized cells by ELISA (Assay 5); format: cell-based; conditions: PIxEL [M] (median), permeabilized RKO cells, biotin-BIM BH3 peptide 0.2 μM, serum free
Sequence (Q07820 whole entry): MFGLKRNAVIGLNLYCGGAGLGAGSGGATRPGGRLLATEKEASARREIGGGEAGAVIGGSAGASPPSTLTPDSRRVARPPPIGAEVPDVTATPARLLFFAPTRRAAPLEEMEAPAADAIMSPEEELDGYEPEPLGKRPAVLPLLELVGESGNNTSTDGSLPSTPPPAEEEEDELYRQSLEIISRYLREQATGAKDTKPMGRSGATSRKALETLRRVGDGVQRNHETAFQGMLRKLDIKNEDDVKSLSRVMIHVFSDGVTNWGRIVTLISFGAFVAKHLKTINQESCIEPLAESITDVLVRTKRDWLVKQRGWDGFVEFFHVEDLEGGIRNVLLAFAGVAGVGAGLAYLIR
Entries and their measured IC50 follow.
Write the number in M without appending the unit.

Lab note: MCL1 protein (Homo sapiens) assay, enter IC50 for Cc1c2c(nn1C)COCc1ccccc1Cn1c(C(=O)O)c(CCCOc3cccc4ccccc34)c3ccc(Cl)c-2c31 (single isomer, unassigned; enantiomer 1) here
1.61e-06

// output IC50; input CCc1c2c(nn1C)COCc1ccccc1Cn1c(C(=O)O)c(CCCOc3cccc4cc(F)ccc34)c3ccc(Cl)c-2c31 (single isomer, unassigned; enantiomer 1) [Example 55] ; system MCL1 protein (Homo sapiens)
3.11e-07

Give IC50 only, for Cc1c2c(nn1C)COCc1ncccc1Cn1c(C(=O)O)c(CCCOc3cccc4ccccc34)c3cccc-2c31 (single isomer, unassigned; enantiomer 1) , using MCL1 protein (Homo sapiens) data.
1.82e-05
